TEST METHOD NOTES: qHTS assay to identify small molecule antagonists of the retinoid-related orphan receptor gamma (ROR-gamma) signaling pathway - cell viability counter screen (AID 1159520); also: nearly all actives have a fitted effect of over 50% in size
MEASUREMENT CONTEXT: Tet-on RORgamma CHO cells viability, ATP luminescence, 16 h; series mostly up to 92.4 µM
Inconclusive results are not listed. The source made the active and inactive calls. Calls follow the shape of the dose curve; as a rule, active = well fitted cell-killing curve with a large enough effect in the repeat runs; inconclusive = weak or mixed curves, or effect the other way; inactive = no such curve, though single readings can be large or run the other way.
Outcomes: active, inactive

                                    compound  label_class
 0                                 SC1CCCCC1     inactive
 1  CN(C)CCOc1ccc(/C(=C(/CCCl)c2ccccc2)c2ccccc2)cc1       active
 2                    Cc1cc(Br)ccc1NC(=O)CCl       active
 3  CCc1cccc(C)c1N(C(=O)C(=O)O)C(C)COC (stereo unspecified)     inactive
 4                Cn1c(=O)[nH]c2ncn(C)c2c1=O     inactive
 5                         Cc1ccc2n[nH]nc2c1     inactive
 6                            CSc1ccc(O)cc1C     inactive
 7     CCCCCN=C(N)N/N=C/c1c[nH]c2ccc(OC)cc12       active
 8             CCC(O)CO (stereo unspecified)     inactive
 9                        CCCCCCCCCCCC(=O)Cl     inactive
10                 Cc1ccc(S(=O)(=O)C(I)I)cc1       active
11                 CC1=CC[C@@H](C(C)(C)O)CC1     inactive
12           C/C(=N\[Si](C)(C)C)O[Si](C)(C)C     inactive
13                      Clc1ccc2c(Cl)ccnc2c1     inactive
14                               C=CC(C)(C)O     inactive
15                     CC(C)=CCC[C@H](C)CC=O     inactive
16                                   C1CCSC1     inactive
17                 Nc1cc([N+](=O)[O-])ccc1Cl     inactive
18                   COc1c(Br)cc(Br)c(C)c1Br     inactive
19                CCNc1nc(NC(C)(C)C)nc(OC)n1     inactive
20             CC1(C)[C@H]2CC[C@]1(C)C(=O)C2     inactive
21                   CCN(CC)c1ccc(C=O)c(O)c1     inactive
22                     CCn1c2ccccc2c2ccccc21     inactive
23                   O=C1CCC/C=C\CCCCCCCCCC1     inactive
24  CC(CC(C)(C)C)CC(C)(C)CC(C)(C)C (stereo unspecified)     inactive
25                        [Cl][Dy]([Cl])[Cl]     inactive
26  C=C1CC[C@H]2O[C@]2(C)CC[C@@H]2[C@@H]1CC2(C)C     inactive
27                     CCc1c(C)cc(N)c(CC)c1N     inactive
28   C=CC(=O)OCC(Br)CBr (stereo unspecified)     inactive
29                     Cc1c[nH]c(=O)[nH]c1=O     inactive
30         Clc1nc(C(Cl)(Cl)Cl)c(Cl)c(Cl)c1Cl       active
